Source: patent US20100143459A1

# assay-details: Pharmacokinetics in humans after a 10 mg tablet under fasting conditions
# Assay type: in vivo
# measurement-context: plasma, human patients, single 10 mg oral dose, mean±SD

| smiles-entry | Tmax |
| --- | --- |
| Cc1ccc(F)c(NC(=O)Nc2ccc(-c3cccc4[nH]nc(N)c34)cc2)c1 | ~2.8 h |
